All figures here come from patent US4528293A.

Provide the recorded ED50 for the entries that follow.
# Test system: gastric acid secretion
# procedure-details: Acute gastric fistula rat test: inhibition of gastric acid secretion (Total Acid Output)
# Type: in vivo, Female Sprague-Dawley rats
# test-context: po, one hour prior to surgery, 1 h collection after 30 min stabilization, read-out: ED50 Acute Gastric Fistula (dose required to produce an average of 50% inhibition in Total Acid Output versus controls)
Could you write the number and then its unit?

Known ED50 results, listed for orientation:
- C(=NCCc1ccncc1)N1CCC(C(c2ccccc2)c2ccccc2)CC1 [Example 6]: 18.8 mg/kg
- C(=NCCc1ccccn1)N1CCC(C(c2ccccc2)c2ccccc2)CC1 [Example 5]: 3.47 mg/kg
- C(=NCc1ccco1)N1CCC(C(c2ccccc2)c2ccccc2)CC1 [Example 1]: 6.91 mg/kg
- C(=NCc1cccs1)N1CCC(C(c2ccccc2)c2ccccc2)CC1 [Example 4]: 6.59 mg/kg

Here's the next entry for you.
input: Give ED50 (gastric acid secretion) of the following molecule: Cn1cccc1CCN=CN1CCC(C(c2ccccc2)c2ccccc2)CC1.O=C(O)/C=C/C(=O)O [Example 3]
output: 3.61 mg/kg
